- System: L1210
- assay-overview: Compound was tested for its inhibitory concentration to inhibit the growth of wild type L1210 cells; Mean of four separate assays
- Format: functional, cell-based
- particulars: Mus musculus
parameter: pIC50
Please treat pIC50 as minus the base-10 logarithm of the molar concentration.

// assay L1210, entry Nc1nc(N)c2nc(CNc3ccc(C(=O)NC(CCC(=O)Nc4ccc5c(c4)OCO5)C(=O)O)cc3)cnc2n1 (stereo unspecified) , pIC50 value = 9.41

* * *

For each record, write down the corresponding IC50.
- Tested on: L1210
- assay-overview: Compound was tested for its inhibitory concentration to inhibit the growth of wild type L1210 cells.
- Assay type: functional, cell-based, Mus musculus
- particulars: Mus musculus, L1210
Give the quantity in nM, number only.

Reported IC50 ( "Nc1nc(N)c2nc(CNc3ccc(C(=O)N[C@@H](CCC(=O)O)C(=O)O)cc3)cnc2n1" ) = 3

Short answer for Nc1nc(N)c2nc(CNc3ccc(C(=O)NC(CCC(=O)NCc4ccc(Cl)c(Cl)c4)C(=O)O)cc3)cnc2n1 (centres undefined) : IC50 was 46

Item: CN(Cc1cnc2nc(N)nc(N)c2n1)c1ccc(C(=O)NC(CCC(=O)Nc2ccc3c(c2)OCO3)C(=O)O)cc1 (centres undefined) | IC50: 2.9

Query Nc1nc(N)c2nc(CNc3ccc(C(=O)NC(CCC(=O)NCc4ccccc4)C(=O)O)cc3)cnc2n1 (centres undefined) yields IC50 of 5

Value source: ChEMBL document CHEMBL1123432
